target: Full-length USP19 (Homo sapiens, UniProt O94966)
Sequence (O94966 whole entry): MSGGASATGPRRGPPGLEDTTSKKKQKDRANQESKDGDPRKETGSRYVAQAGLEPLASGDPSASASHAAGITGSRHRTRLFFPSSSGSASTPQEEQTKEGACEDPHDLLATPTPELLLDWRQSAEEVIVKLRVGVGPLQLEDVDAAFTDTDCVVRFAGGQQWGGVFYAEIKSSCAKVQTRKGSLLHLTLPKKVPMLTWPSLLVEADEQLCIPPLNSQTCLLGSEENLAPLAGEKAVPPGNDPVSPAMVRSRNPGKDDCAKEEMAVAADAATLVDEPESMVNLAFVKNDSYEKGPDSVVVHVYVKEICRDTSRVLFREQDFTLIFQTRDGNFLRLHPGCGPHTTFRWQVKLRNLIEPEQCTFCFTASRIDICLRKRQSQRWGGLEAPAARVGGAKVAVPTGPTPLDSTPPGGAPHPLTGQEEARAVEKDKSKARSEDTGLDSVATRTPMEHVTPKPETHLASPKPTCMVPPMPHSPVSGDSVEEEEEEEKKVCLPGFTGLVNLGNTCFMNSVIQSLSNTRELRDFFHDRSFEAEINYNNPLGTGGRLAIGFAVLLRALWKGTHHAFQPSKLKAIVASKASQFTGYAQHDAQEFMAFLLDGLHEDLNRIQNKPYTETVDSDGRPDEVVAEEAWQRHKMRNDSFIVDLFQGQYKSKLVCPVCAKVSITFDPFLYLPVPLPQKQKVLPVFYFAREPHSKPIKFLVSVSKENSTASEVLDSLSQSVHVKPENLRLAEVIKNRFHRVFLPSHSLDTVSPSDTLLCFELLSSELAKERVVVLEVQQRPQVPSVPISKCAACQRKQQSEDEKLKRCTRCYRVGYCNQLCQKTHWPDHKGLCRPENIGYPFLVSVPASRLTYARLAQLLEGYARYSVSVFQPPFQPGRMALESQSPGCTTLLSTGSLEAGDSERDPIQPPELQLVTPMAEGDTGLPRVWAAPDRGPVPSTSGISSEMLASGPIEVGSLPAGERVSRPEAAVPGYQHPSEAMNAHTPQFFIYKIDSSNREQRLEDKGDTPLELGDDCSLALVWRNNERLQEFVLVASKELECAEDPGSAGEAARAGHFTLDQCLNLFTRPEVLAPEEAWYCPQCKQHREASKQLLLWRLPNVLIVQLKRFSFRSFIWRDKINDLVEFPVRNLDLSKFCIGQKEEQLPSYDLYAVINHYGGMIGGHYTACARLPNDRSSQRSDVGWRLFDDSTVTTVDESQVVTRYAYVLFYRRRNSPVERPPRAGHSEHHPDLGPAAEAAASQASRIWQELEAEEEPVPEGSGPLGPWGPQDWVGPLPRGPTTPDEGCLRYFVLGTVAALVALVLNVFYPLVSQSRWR
pIC50: −log10 of the molar value.
pIC50 overview

Worked examples, 2 molecules total:
O=C(N1CC[C@@H](Cn2ccc(-c3ccccc3)cc2=O)C2(CCCC2)C1)N1CC[C@H](NC2CS(=O)(=O)C2)C[C@H]1c1ccccc1
6.00 to 7.00
CN[C@H]1C[C@@H](c2ccccc2)N(C(=O)N2CC[C@@H](Cn3cnc(-c4ccccc4)cc3=O)C3(CCCC3)C2)C1
> 8.00

Fill blank: measured pIC50 of the molecule "CN[C@@H]1CCN(C(=O)N2CC[C@@H](Cn3cnc4ccc(F)cc4c3=O)C3(CCCC3)C2)[C@H](c2cc(F)ccc2F)C1" is ____.
> 8.00
